target.or.system: T1, eukaryotically produced human IL-6 (human, UniProt P05231 30-212)
T1 construct: also called eukIL-6; Euk IL-6
method.notes: SPR; periplasmic fraction; against parental 29B11
assay.endpoint: fold improvement kd (fold)
Your answer should be a plain number; it is taken to be in fold.

Memo: Fab 55C1 (Fab, V domains shown, VL-shuffled Fab of 29B11, periplasmic fraction; also called 55C1a) VH: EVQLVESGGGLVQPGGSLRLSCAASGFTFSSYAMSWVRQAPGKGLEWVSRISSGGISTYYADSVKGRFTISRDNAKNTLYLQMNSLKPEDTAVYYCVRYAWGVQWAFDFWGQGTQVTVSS VL: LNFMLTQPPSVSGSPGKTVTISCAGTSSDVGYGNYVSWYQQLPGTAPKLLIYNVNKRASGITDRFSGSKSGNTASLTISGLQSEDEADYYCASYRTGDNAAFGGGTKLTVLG , reported fold improvement kd: 1.29
